Values from the NIST ThermoML archive (doi:10.1016/j.jct.2014.09.001)

# study-conditions: 298.15 K; 101.33 kPa; Liquid; Vibrating tube method
endpoint-name: mass density (kg/m3)

[
  {
    "molecule": "CCO",
    "scale-unit": "kg/m3",
    "measured-result": 784.9
  },
  {
    "molecule": "CCCO",
    "scale-unit": "kg/m3",
    "measured-result": 799.56
  },
  {
    "molecule": "O=[N+]([O-])c1ccccc1",
    "scale-unit": "kg/m3",
    "measured-result": 1198.12
  },
  {
    "molecule": "CCC(C)O (stereo unspecified)",
    "scale-unit": "kg/m3",
    "measured-result": 802.48
  },
  {
    "molecule": "CCCCO",
    "scale-unit": "kg/m3",
    "measured-result": 805.79
  },
  {
    "molecule": "CC(C)O",
    "scale-unit": "kg/m3",
    "measured-result": 780.9
  }
]

###

# method-description: refractive index (Na D-line) (dimensionless)
# study-conditions: 298.15 K; 101.33 kPa; Liquid; Standard Abbe refractometry
endpoint-name: refractive index

[
  {
    "compound": "CCCCO [butan-1-ol]",
    "endpoint-name": "refractive index",
    "measured-result": 1.39734
  },
  {
    "compound": "CCCO [propan-1-ol]",
    "endpoint-name": "refractive index",
    "measured-result": 1.38361
  },
  {
    "compound": "CC(C)O [propan-2-ol]",
    "endpoint-name": "refractive index",
    "measured-result": 1.37518
  },
  {
    "compound": "CCO [ethanol]",
    "endpoint-name": "refractive index",
    "measured-result": 1.35961
  },
  {
    "compound": "CCC(C)O (stereo unspecified) [butan-2-ol]",
    "endpoint-name": "refractive index",
    "measured-result": 1.39551
  },
  {
    "compound": "O=[N+]([O-])c1ccccc1 [nitrobenzene]",
    "endpoint-name": "refractive index",
    "measured-result": 1.55004
  }
]
